# Experiment summary: self-splicing fitness, log relative to wild type (ln ratio); higher = more splicing; Tetrahymena group I intron in knt gene, E. coli kanamycin selection, DiMSum; sequences stand for … in CUCUCU…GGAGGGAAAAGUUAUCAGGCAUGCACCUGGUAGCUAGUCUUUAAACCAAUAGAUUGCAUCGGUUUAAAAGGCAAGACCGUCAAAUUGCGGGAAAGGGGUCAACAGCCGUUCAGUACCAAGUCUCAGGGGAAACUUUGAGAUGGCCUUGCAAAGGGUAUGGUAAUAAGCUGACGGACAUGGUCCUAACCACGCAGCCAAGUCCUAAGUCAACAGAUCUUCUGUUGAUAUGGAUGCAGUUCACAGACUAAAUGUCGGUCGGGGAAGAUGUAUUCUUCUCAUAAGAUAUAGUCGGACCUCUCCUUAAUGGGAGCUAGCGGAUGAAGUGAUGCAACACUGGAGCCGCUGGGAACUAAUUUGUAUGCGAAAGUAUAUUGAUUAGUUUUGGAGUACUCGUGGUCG;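 also: selection with 25 µg/mL kanamycin versus none on LB agar overnight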
# Details: 30 °C
Binary classification by self-splicing fitness (ln), with -2 as an inclusive lower bound for criterion met; all other cases are criterion not met.

Sequence text	Class label
CUAUAGCAAUAUUACGACUG	criterion met
GUGCAGCAAUAUUACGUUCC	criterion not met
GGGCAGCAAUAUUACGCAAG	criterion met
AUCGAGCAAUAUUACGGGAC	criterion not met
GUAAAGCAAUAUUACGUCUC	criterion met
GGGCAGCAAUAUUACGAGUA	criterion not met
GAAUAGCAAUAUUACGGAUG	criterion not met
AGUAAGCAAUAUUACGACGU	criterion met
AGUCAGCAAUAUUACGACUA	criterion met
AGAGAGCAAUAUUACGUGAG	criterion not met
CGCAAGCAAUAUUACGUGAA	criterion not met
CAAUAGCAAUAUUACGAAGA	criterion not met
CGGUAGCAAUAUUACGCCGG	criterion met
UAACAGCAAUAUUACGUCUG	criterion met
AUAGAGCAAUAUUACGAACG	criterion not met
GGGGAGCAAUAUUACGUCGU	criterion not met
